Test system: U-2-OS (Osteosarcoma);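 note: after 72 h of two-drug dosing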
Experiment: Bliss excess, mean over the matrix (fraction); higher = more synergy
Each record here notes measured Bliss excess.
Hey, just send me the number, nothing else.

COc1cccc(OCCCN)c1-c1cc(Nc2cnc(C#N)cn2)n[nH]1 [Prexasertib] + CN(C)CCCOc1ccc(-c2ccc3ncc4c(c3c2)n(C2CCOCC2)c(=O)n4C)cn1 [AZD0156] (first compound max 1 µM, 7x7, partner max 1 µM)    0.0176
CN(CCO)CC[C@H](CSc1ccccc1)Nc1ccc(S(=O)(=O)NC(=O)c2ccc(N3CCC([C@@H](O)c4ccccc4-c4ccc(Cl)cc4)CC3)cc2)cc1S(=O)(=O)C(F)(F)F [AZD4320] + C[C@@H]1COCCN1C2=NC(=NC(=C2)C3(CC3)[S@](=N)(=O)C)C4=C5C=CNC5=NC=C4 [AZD6738] (first compound max 1 µM, 7x7, partner max 10 µM)    -0.0394

// returns reported Bliss excess for input CN(CCO)CC[C@H](CSc1ccccc1)Nc1ccc(S(=O)(=O)NC(=O)c2ccc(N3CCC([C@@H](O)c4ccccc4-c4ccc(Cl)cc4)CC3)cc2)cc1S(=O)(=O)C(F)(F)F [AZD4320] + Cc1cc2ncnn2cc1Nc1ncc2c(n1)n(C1CCOCC1)c(=O)n2C [AZD7648] (first compound max 1 µM, 7x7, partner max 10 µM)
-0.0294
